src = patent US12459922B2

targetDesc: UniProt:Q7Z3E1
procedureSummary: Probe Displacement Assay for PARP7 (MSD electrochemiluminescent, biotinylated probe RBNO11147)
conditionNotes: displacement of biotinylated probe RBNO11147 from PARP7 NAD+-binding site; read-out: MSD ProbeDisp PARP7 IC50
property: IC50 (nM)

1) C[C@@H](CCCn1ccc2cc(-c3ccc(C(F)(F)F)cn3)ncc2c1=O)Nc1cn[nH]c(=O)c1C(F)(F)F [Example 13] ... 3.7

1 = C[C@@H](CCCn1ccc2cc(-c3ccc(F)cn3)cc(F)c2c1=O)Nc1cn[nH]c(=O)c1C(F)(F)F [Example 19]
2 = O=c1[nH]ncc(NC2(CCCn3ccc4cc(-c5ncc(C(F)(F)F)cn5)c(F)cc4c3=O)CC2)c1C(F)(F)F [Example 61]
Response body: label of entry with the larger IC50; valid values 1 , 2 . // output: label of the selected item
2

###

targetDesc: PARP7 (Homo sapiens, UniProt Q7Z3E1)
Sequence (Q7Z3E1 1-657): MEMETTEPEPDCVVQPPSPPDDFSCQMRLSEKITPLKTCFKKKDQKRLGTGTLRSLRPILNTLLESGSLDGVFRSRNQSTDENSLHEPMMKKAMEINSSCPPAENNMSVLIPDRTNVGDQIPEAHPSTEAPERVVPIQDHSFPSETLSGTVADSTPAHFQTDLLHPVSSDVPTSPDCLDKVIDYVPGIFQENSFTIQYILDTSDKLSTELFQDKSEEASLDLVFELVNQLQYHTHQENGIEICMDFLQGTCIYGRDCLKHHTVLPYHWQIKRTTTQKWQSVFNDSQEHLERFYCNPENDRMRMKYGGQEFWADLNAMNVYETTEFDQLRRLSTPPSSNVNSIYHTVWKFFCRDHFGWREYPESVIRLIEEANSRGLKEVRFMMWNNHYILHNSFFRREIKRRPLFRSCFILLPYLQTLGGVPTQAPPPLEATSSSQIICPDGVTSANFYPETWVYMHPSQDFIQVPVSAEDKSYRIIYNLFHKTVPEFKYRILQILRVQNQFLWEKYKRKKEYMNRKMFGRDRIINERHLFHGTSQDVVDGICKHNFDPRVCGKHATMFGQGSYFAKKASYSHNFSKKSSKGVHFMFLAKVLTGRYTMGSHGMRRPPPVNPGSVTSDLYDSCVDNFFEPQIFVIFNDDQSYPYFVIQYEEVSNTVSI
procedureSummary: Probe Displacement Assay for PARP7 (MSD electrochemiluminescent, biotinylated probe RBNO11147)
conditionNotes: displacement of biotinylated probe RBNO11147 from PARP7 NAD+-binding site; read-out: MSD ProbeDisp PARP7 IC50
pIC50: −log10 of the molar value.
property: pIC50

1) Cc1cc2cc(-c3ncc(C(F)(F)F)cn3)ccc2c(=O)n1CCC[C@H](C)Nc1cn[nH]c(=O)c1C(F)(F)F ... 8.92
2) C[C@@H](CCCn1ccc2cc(-c3ncc(F)cn3)c(F)cc2c1=O)Nc1cn[nH]c(=O)c1C(F)(F)F ... 9.22
3) CC[C@@H](CCCn1cnc2cc(-c3ncc(C(F)F)cn3)c(F)cc2c1=O)Nc1cn[nH]c(=O)c1C(F)(F)F ... 9.54
4) Nc1nc(-c2cc3ccn(CCC[C@H](COC(F)F)Nc4cn[nH]c(=O)c4C(F)(F)F)c(=O)c3cc2F)ncc1Cl ... 9.59
5) CC(=O)c1c(N[C@@H](C)CCCn2ccc3cc(-c4ncc(C(F)(F)F)cn4)ccc3c2=O)cn[nH]c1=O ... 9.52

I = CC(=O)c1c(N[C@@H](C)CCCn2ccc3cc(-c4ncc(C(F)(F)F)cn4)c(F)cc3c2=O)cn[nH]c1=O
II = C[C@@H](CCCn1ccc2cc(-c3cnc(C#N)cn3)c(F)cc2c1=O)Nc1cn[nH]c(=O)c1C(F)(F)F
Hi, I'm comparing two records. Which one has the lower pIC50, I or II ? Bench note: the answer is the label of the chosen record.
II
(II: 9.40, I: 9.70)

###

targetDesc: PARP7 (Homo sapiens)
procedureSummary: Probe Displacement Assay for PARP7 (MSD electrochemiluminescent, biotinylated probe RBNO11147)
conditionNotes: displacement of biotinylated probe RBNO11147 from PARP7 NAD+-binding site; read-out: MSD ProbeDisp PARP7 IC50
pIC50: −log10 of the molar value.
property: pIC50

Below, 5 compounds whose answers are already recorded.
1) C[C@@H](CCCn1cnc2cc(-c3ncc(C(F)(F)F)cn3)c(F)cc2c1=O)Nc1cn[nH]c(=O)c1C(F)(F)F ... 8.80
2) C[C@@H](CCCn1ccc2cc(-c3nc(C(F)F)cs3)c(F)cc2c1=O)Nc1cn[nH]c(=O)c1C(F)(F)F ... 9.29
3) C[C@@H](CCCn1ccc2cc(-c3ccc(C#N)cn3)c(F)cc2c1=O)Nc1cn[nH]c(=O)c1C(F)(F)F ... 9.22
4) Nc1nc(-c2cc3ccn(CCC[C@H](COC(F)F)Nc4cn[nH]c(=O)c4C(F)(F)F)c(=O)c3cc2F)ncc1C(F)F ... 9.47
5) C[C@@H](CCCn1ccc2cc(-c3ccc(C4(C(F)(F)F)CC4)cn3)cc(F)c2c1=O)Nc1cn[nH]c(=O)c1C(F)(F)F ... 8.60

A = C[C@@H](CCCn1ccc2cc(-c3ncc4c(n3)NC(=O)CO4)c(F)cc2c1=O)Nc1cn[nH]c(=O)c1C(F)(F)F
B = C[C@@H](CCCn1ccc2cc(-c3ccc(OC(F)F)cn3)c(F)c(F)c2c1=O)Nc1cn[nH]c(=O)c1C(F)(F)F
Compare reported pIC50 values for A and B . Which is lower? Answer by quoting the chosen item's label.
B

###

targetDesc: PARP7 (Homo sapiens, UniProt Q7Z3E1)
procedureSummary: Probe Displacement Assay for PARP7 (MSD electrochemiluminescent, biotinylated probe RBNO11147)
conditionNotes: displacement of biotinylated probe RBNO11147 from PARP7 NAD+-binding site; read-out: MSD ProbeDisp PARP7 IC50
pIC50: −log10 of the molar value.
property: pIC50

P = C[C@@H](CCCn1ccc2cc(-c3ncc(C(F)(F)F)c(N4C[C@H](O)C[C@@H]4C)n3)c(F)cc2c1=O)Nc1cn[nH]c(=O)c1C(F)(F)F
Q = C[C@@H](CCCn1ccc2cc(-c3ncc(C#N)cn3)c(F)cc2c1=O)Nc1cn[nH]c(=O)c1C(F)(F)F
R = C[C@@H](CCCn1ccc2cc(-c3ncc(C(F)(F)F)cn3)ccc2c1=O)Nc1cn[nH]c(=O)c1C(F)(F)F
I'd appreciate it if you could rank the compounds mentioned above by pIC50, largest value first. Ranked list of labels, please, in the requested order.
P, R, Q
(P: 9.72, R: 9.52, Q: 9.05)

###

targetDesc: PARP7 (Homo sapiens, UniProt Q7Z3E1)
Sequence (Q7Z3E1 1-657): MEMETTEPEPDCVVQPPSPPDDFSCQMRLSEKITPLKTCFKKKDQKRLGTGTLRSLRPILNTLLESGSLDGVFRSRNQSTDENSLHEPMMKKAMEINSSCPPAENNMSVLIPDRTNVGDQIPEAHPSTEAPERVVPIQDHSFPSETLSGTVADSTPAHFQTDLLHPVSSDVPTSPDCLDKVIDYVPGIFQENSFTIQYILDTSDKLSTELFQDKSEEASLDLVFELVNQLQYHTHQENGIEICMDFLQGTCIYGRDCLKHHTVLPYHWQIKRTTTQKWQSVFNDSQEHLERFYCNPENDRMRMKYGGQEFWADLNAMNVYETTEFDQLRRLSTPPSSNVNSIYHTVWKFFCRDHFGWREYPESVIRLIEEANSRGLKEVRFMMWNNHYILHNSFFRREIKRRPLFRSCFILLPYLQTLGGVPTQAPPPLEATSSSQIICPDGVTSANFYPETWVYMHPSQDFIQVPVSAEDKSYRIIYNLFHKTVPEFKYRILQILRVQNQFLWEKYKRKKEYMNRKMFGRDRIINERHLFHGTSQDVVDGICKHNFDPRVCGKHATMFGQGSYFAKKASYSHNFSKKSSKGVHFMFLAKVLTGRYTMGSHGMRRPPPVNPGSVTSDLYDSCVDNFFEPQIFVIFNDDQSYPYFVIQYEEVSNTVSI
procedureSummary: Probe Displacement Assay for PARP7 (MSD electrochemiluminescent, biotinylated probe RBNO11147)
conditionNotes: displacement of biotinylated probe RBNO11147 from PARP7 NAD+-binding site; read-out: MSD ProbeDisp PARP7 IC50
pIC50: −log10 of the molar value.
property: pIC50

1. C[C@@H](CCCn1ccc2cc(-c3ncc(C(F)(F)F)c(N4C[C@@H](O)[C@@H]4C)n3)c(F)cc2c1=O)Nc1cn[nH]c(=O)c1C(F)(F)F ... 9.59
2. Nc1nc(-c2cc3ccn(CCC[C@H](COC(F)F)Nc4cn[nH]c(=O)c4C(F)(F)F)c(=O)c3cc2F)ncc1C(F)(F)F ... 9.85
3. C[C@@H](CCCn1ccc2cc(-c3ncc(C(F)(F)F)cn3)c(Cl)cc2c1=O)Nc1cn[nH]c(=O)c1C(F)(F)F ... 9.17
4. C[C@@H](CCCn1ccc2cc(-c3ccc(OC(F)F)cn3)c(F)cc2c1=O)Nc1cn[nH]c(=O)c1C(F)(F)F ... 9.12

A = C[C@@H](CCCn1ccc2cc(-c3ncc(OC(F)F)cn3)c(F)cc2c1=O)Nc1cn[nH]c(=O)c1C(F)(F)F
B = C[C@@H](CCCn1ccc2cc(-c3ncc(C(F)(F)F)c(N4C[C@@H](O)C[C@@H]4C)n3)c(F)cc2c1=O)Nc1cn[nH]c(=O)c1C(F)(F)F
C = C[C@@H](CCCn1ccc2cc(-c3ccccn3)c(F)cc2c1=O)Nc1cn[nH]c(=O)c1C(F)(F)F
D = O=c1[nH]ncc(N[C@@H](CO)CCCn2ccc3cc(-c4ncc(C(F)(F)F)cn4)c(F)c(F)c3c2=O)c1C(F)(F)F
Sort ascending by pIC50. I would appreciate it if you listed the labels in the requested order.
A, B, D, C

1 = C[C@@H](CCCn1ccc2nc(-c3ccc(C(F)(F)F)cn3)ccc2c1=O)Nc1cn[nH]c(=O)c1C(F)(F)F
2 = C[C@@H](CCCn1cnc2cc(-c3ccc(F)cn3)c(F)cc2c1=O)Nc1cn[nH]c(=O)c1C(F)(F)F
Of 1 versus 2 , which is the one with smaller reported pIC50? Mark your answer with the label of the selected entry.
2
(2: 9.09, 1: 9.30)

1 = CC[C@@H](CCCn1ccc2cc(-c3ncc(Cl)c(N)n3)c(F)cc2c1=O)Nc1cn[nH]c(=O)c1C(F)(F)F
2 = Cc1cn(CCC[C@H](C)Nc2cn[nH]c(=O)c2C(F)(F)F)c(=O)c2ccc(-c3ncc(C(F)(F)F)cn3)cc12
Of 1 versus 2 , which is the one with smaller reported pIC50? Field: selected label. Fill in the label of the entry you choose.
2
